system: Mycobacterium tuberculosis Erdman (pMV306hsp+LuxG13); assay: log2 fractional inhibitory concentration at 50% inhibition (log2 FIC); higher = more antagonistic; settings: growth medium: cholesterol 0.2 mM (cholesterol-high); time point: terminal time point
Recorded measurements of log2 fractional inhibitory concentration, one per entry
observable: log2 fractional inhibitory concentration

molecule: CC(C)/N=c1\cc2n(-c3ccc(Cl)cc3)c3ccccc3nc-2cc1Nc1ccc(Cl)cc1 [clofazimine] + CC(C)=CCC/C(C)=C/CNCCNC1C2CC3CC(C2)CC1C3 [SQ109]
observable: log2 fractional inhibitory concentration
test.result: 0.4

molecule: CO[C@H]1/C=C/O[C@@]2(C)Oc3c(C)c(O)c4c(O)c(c(/C=N/N5CCN(C)CC5)c(O)c4c3C2=O)NC(=O)/C(C)=C\C=C\[C@H](C)[C@H](O)[C@@H](C)[C@@H](O)[C@@H](C)[C@H](OC(C)=O)[C@@H]1C [rifampicin] + CC(=O)NC[C@H]1CN(c2ccc(N3CCSCC3)c(F)c2)C(=O)O1 [sutezolid]
observable: log2 fractional inhibitory concentration
test.result: -0.136

molecule: NC(=O)c1cnccn1 [pyrazinamide] + CC(C)=CCC/C(C)=C/CNCCNC1C2CC3CC(C2)CC1C3 [SQ109]
observable: log2 fractional inhibitory concentration
test.result: 0.668

molecule: COc1c(N2C[C@@H]3CCCN[C@@H]3C2)c(F)cc2c(=O)c(C(=O)O)cn(C3CC3)c12 [moxifloxacin] + CC(=O)NC[C@H]1CN(c2ccc(N3CCSCC3)c(F)c2)C(=O)O1
observable: log2 fractional inhibitory concentration
test.result: -0.612

molecule: NNC(=O)c1ccncc1 [isoniazid] + CC(C)=CCC/C(C)=C/CNCCNC1C2CC3CC(C2)CC1C3 [SQ109]
observable: log2 fractional inhibitory concentration
test.result: 0.189

----------
tested on: Mycobacterium tuberculosis Erdman (pMV306hsp+LuxG13); assay: log2 fractional inhibitory concentration at 50% inhibition (log2 FIC); higher = more antagonistic; conditions: growth medium: valerate 0.1%; time point: terminal time point

compound: NC(=O)c1cnccn1 [pyrazinamide] + CC(=O)NC[C@H]1CN(c2ccc(N3CCSCC3)c(F)c2)C(=O)O1 [sutezolid]
log2 fractional inhibitory concentration: 0.436

compound: CO[C@H]1/C=C/O[C@@]2(C)Oc3c(C)c(O)c4c(O)c(c(/C=N/N5CCN(C6CCCC6)CC5)c(O)c4c3C2=O)NC(=O)/C(C)=C\C=C\[C@H](C)[C@H](O)[C@@H](C)[C@@H](O)[C@@H](C)[C@H](OC(C)=O)[C@@H]1C [rifapentine] + CC(=O)NC[C@H]1CN(c2ccc(N3CCSCC3)c(F)c2)C(=O)O1
log2 fractional inhibitory concentration: 0.176

compound: COc1nc2ccc(Br)cc2cc1[C@@H](c1ccccc1)[C@@](O)(CCN(C)C)c1cccc2ccccc12 [bedaquiline] + CC(C)=CCC/C(C)=C/CNCCNC1C2CC3CC(C2)CC1C3 [SQ109]
log2 fractional inhibitory concentration: 0.276

compound: CO[C@H]1/C=C/O[C@@]2(C)Oc3c(C)c(O)c4c(O)c(c(/C=N/N5CCN(C)CC5)c(O)c4c3C2=O)NC(=O)/C(C)=C\C=C\[C@H](C)[C@H](O)[C@@H](C)[C@@H](O)[C@@H](C)[C@H](OC(C)=O)[C@@H]1C [rifampicin] + CC(=O)NC[C@H]1CN(c2ccc(N3CCSCC3)c(F)c2)C(=O)O1 [sutezolid]
log2 fractional inhibitory concentration: 0.427

compound: COc1nc2ccc(Br)cc2cc1[C@@H](c1ccccc1)[C@@](O)(CCN(C)C)c1cccc2ccccc12 [bedaquiline] + CC(=O)NC[C@H]1CN(c2ccc(N3CCSCC3)c(F)c2)C(=O)O1 [sutezolid]
log2 fractional inhibitory concentration: 0.264

compound: CC[C@@H](CO)NCCN[C@@H](CC)CO [ethambutol] + CC(=O)NC[C@H]1CN(c2ccc(N3CCSCC3)c(F)c2)C(=O)O1 [sutezolid]
log2 fractional inhibitory concentration: 0.139

compound: O=[N+]([O-])c1cn2c(n1)OC[C@@H](OCc1ccc(OC(F)(F)F)cc1)C2 [pretomanid] + CC(=O)NC[C@H]1CN(c2ccc(N3CCSCC3)c(F)c2)C(=O)O1
log2 fractional inhibitory concentration: -0.609

compound: COc1c(N2C[C@@H]3CCCN[C@@H]3C2)c(F)cc2c(=O)c(C(=O)O)cn(C3CC3)c12 [moxifloxacin] + CC(=O)NC[C@H]1CN(c2ccc(N3CCSCC3)c(F)c2)C(=O)O1
log2 fractional inhibitory concentration: 0.257

compound: NNC(=O)c1ccncc1 [isoniazid] + CC(=O)NC[C@H]1CN(c2ccc(N3CCSCC3)c(F)c2)C(=O)O1 [sutezolid]
log2 fractional inhibitory concentration: 0.633

compound: CC(C)/N=c1\cc2n(-c3ccc(Cl)cc3)c3ccccc3nc-2cc1Nc1ccc(Cl)cc1 [clofazimine] + CC(=O)NC[C@H]1CN(c2ccc(N3CCSCC3)c(F)c2)C(=O)O1
log2 fractional inhibitory concentration: 0.564
